- Test name: AUC (0 to t) in Sprague-Dawley rat at 1 mg/kg, iv
- Type: ADME, organism-based
- Set-up: dose 1 mg/kg, route intravenous
- Measurement parameters: plasma
Experimental endpoint: AUC(0-t) (ng·h/mL)

>>> value("COc1cc(C2CCN(CC(N)=O)CC2)ccc1Nc1ncc2ccc(-c3ccccc3OC)n2n1")
1110

###

- Test name: AUC (0 to t) in SCID mouse at 10 mg/kg, po
- Type: ADME, organism-based
- Design: dose 10 mg/kg, route oral
- Measurement parameters: plasma
Experimental endpoint: AUC(0-t) (ng·h/mL)

>>> value("COc1cc(C2CCN(CC(N)=O)CC2)ccc1Nc1ncc2ccc(-c3ccccc3OC)n2n1")
42500
